Assay: Selectivity ratio of IC50 for human BJeH cells to IC50 for human BJeLR cells
Format: ADME, cell-based
Conditions: BJeH cells versus BJeLR cells, read-out: Ratio IC50

Sample smiles: Cc1onc(C(=O)N2CCN(C(c3ccc(Cl)cc3)c3ccc(Cl)cc3)CC2)c1[N+](=O)[O-]
selectivity ratio: 4

* * *

Experiment: Selectivity ratio of IC50 for human BJeH-LT cells to IC50 for human BJeLR cells
Format: ADME, cell-based
Conditions: BJeH-LT cells versus BJeLR cells, read-out: Ratio IC50

Compound: COc1ccc(N(C(=O)CCl)C(C(=O)NCCc2ccccc2)c2cccs2)cc1 (racemic)
selectivity ratio: 7.8

Compound: COC(=O)c1ccc(C2c3[nH]c4ccccc4c3C[C@@H](C(=O)OC)N2C(=O)CCl)cc1 (some centres undefined)
selectivity ratio: 8

Compound: Cc1onc(C(=O)N2CCN(C(c3ccccc3)c3ccc(Cl)cc3)CC2)c1[N+](=O)[O-] (racemic)
selectivity ratio: 4

Compound: Cc1onc(C(=O)N2CCN(C(c3ccc(Cl)cc3)c3ccc(Cl)cc3)CC2)c1[N+](=O)[O-]
selectivity ratio: 3.9

Compound: COc1ccc(C(c2ccc(OC)cc2)N2CCN(C(=O)c3noc(C)c3[N+](=O)[O-])CC2)cc1
selectivity ratio: 3.4

Compound: Cc1onc(C(=O)N2CCN(C(c3ccc(F)cc3)c3ccc(F)cc3)CC2)c1[N+](=O)[O-]
selectivity ratio: 4.1

Compound: COc1ccc(N(C(=O)CCl)C(C(=O)NCc2ccccc2)c2cccs2)cc1Cl (racemic)
selectivity ratio: 2.4

Compound: COc1ccc(N(C(=O)CCl)C(C)(C)C(=O)NCCc2ccccc2)cc1Cl
selectivity ratio: 2.2

Compound: COc1ccc(N(C(=O)CCl)C(C(=O)NCCc2ccccc2)c2nc(C)cs2)cc1Cl (racemic)
selectivity ratio: 2.4

Compound: COc1ccc(N(C(=O)CCl)C(C(=O)NCCc2ccccc2)C2CCCCC2)cc1Cl (racemic)
selectivity ratio: 2.3

Compound: COc1ccc(N(CC(=O)NCCc2ccccc2)C(=O)CCl)cc1Cl
selectivity ratio: 2.3

Compound: COc1ccc(N(C(=O)CCl)C(C(=O)NCCc2ccccc2)c2ccc(Cl)s2)cc1Cl (racemic)
selectivity ratio: 2.2

Compound: COc1ccc(N(C(=O)CCl)C(C(=O)NC2CCCCC2)c2cccs2)cc1Cl (racemic)
selectivity ratio: 2.4

Compound: Cc1onc(C(=O)N2CCCN(C(c3ccccc3)c3ccccc3)CC2)c1[N+](=O)[O-]
selectivity ratio: 3.6

Compound: O=C(NCCc1ccccc1)C(c1cccs1)N(C(=O)CCl)c1cccc(Cl)c1 (racemic)
selectivity ratio: 2.1

Compound: COc1ccc(N(C(=O)CCl)C(C(=O)NCCc2ccccc2)C(C)C)cc1Cl (racemic)
selectivity ratio: 1.5

Compound: Cc1onc(C(=O)N2CCN(C(c3ccccc3)c3ccccc3)CC2)c1[N+](=O)[O-]
selectivity ratio: 4.8

Compound: O=C(c1cc([N+](=O)[O-])ccn1)N1CCN(C(c2ccccc2)c2ccccc2)CC1
selectivity ratio: 1.33

Compound: COc1cccc(N(C(=O)CCl)C(C(=O)NCCc2ccccc2)c2cccs2)c1 (racemic)
selectivity ratio: 14

* * *

Tested on: MEF
Assay: Cytotoxicity against MEF expressing K-rasG12D after 48 hrs by CellTiter-Glo assay
Assay type: functional, cell-based
Settings: Mus musculus

Sample smiles: C[C@H](CN1CCCC1)C(=O)c1ccc(C(F)(F)F)cc1
IC50 [µM]: 4
